target entity: Kinesin-like protein KIF11 [1-973] (Homo sapiens, UniProt P52732)
Construct: 1-973
Sequence (P52732 whole entry): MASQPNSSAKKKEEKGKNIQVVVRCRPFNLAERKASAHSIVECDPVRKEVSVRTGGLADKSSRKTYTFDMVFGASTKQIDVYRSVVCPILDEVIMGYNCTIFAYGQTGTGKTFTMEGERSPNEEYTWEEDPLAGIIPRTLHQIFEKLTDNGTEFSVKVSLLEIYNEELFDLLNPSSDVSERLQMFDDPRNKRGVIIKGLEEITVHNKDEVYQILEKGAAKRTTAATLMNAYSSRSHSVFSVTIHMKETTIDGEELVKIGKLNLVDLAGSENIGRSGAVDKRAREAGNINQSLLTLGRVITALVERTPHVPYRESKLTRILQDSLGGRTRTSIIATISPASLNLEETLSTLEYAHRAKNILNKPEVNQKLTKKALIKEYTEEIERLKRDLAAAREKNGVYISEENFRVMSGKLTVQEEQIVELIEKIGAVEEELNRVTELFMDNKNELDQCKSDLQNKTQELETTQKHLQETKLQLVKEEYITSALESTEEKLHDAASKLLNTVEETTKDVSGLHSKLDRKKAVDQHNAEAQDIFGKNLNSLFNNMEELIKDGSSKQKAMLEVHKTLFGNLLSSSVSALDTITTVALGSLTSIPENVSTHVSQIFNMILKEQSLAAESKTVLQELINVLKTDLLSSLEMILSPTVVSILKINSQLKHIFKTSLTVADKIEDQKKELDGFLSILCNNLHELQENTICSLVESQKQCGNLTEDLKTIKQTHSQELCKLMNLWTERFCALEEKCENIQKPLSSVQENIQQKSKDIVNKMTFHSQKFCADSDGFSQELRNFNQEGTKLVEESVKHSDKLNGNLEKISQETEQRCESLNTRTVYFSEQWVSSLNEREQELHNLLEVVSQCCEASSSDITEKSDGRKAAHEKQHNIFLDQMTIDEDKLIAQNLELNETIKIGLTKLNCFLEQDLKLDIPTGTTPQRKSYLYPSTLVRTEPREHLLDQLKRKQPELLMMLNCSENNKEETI
assay summary: Microtubule-activated ATPase Kinetic Assay
pIC50: −log10 of the molar value.
measured property: pIC50

> print(dat)
                                   compound  measured.property  number
1  CCOC(=O)CNC(=O)C(C1CC1)n1c(Cc2ccccc2)nc2cc(Br)c(Br)cc21 (stereo not drawn)              pIC50    5.64

[P] CCCC(C(=O)NCC(=O)OCC)n1c(Cc2ccccc2)nc2cc(Cl)c(Cl)cc21 (stereo not drawn)
[Q] CCOC(=O)C1C(C)=NC(=S)NC1c1cccc(O)c1 (stereo not drawn)
Which shows the larger pIC50 value: P or Q ? Return value: the label identifying the chosen record. P
